TEST: in vitro
CONDITIONS USED: human, hela cells, % viability
MEASUREMENT LABEL: viability at 28.5 h, 10 µM (%)
Give just the number in %; leave the unit off.

>  <COMPOUND>
O=C(NCc1ccc2c(c1)CCN2C(=O)c1ccncc1)c1cccc(F)c1 [CBK288586]

>  <viability at 28.5 h, 10 µM, %>
102

$$$$
>  <COMPOUND>
O=C(O)c1ccc(COc2ccc(/C=C3\SC(=S)N(Cc4cccnc4)C3=O)cc2)cc1 [CBK264637]

>  <viability at 28.5 h, 10 µM, %>
101

$$$$
>  <COMPOUND>
N#CCCN(C(=O)NCc1cccnc1)C1CCCCC1 [CBK156355]

>  <viability at 28.5 h, 10 µM, %>
104

$$$$
>  <COMPOUND>
CCC(CO)Nc1cncc(-c2cccs2)n1 (centres unmarked) [CBK065534]

>  <viability at 28.5 h, 10 µM, %>
110

$$$$
>  <COMPOUND>
C[C@@H](c1ccccc1)n1c(=O)[nH]c2ncc(-c3cccc(-c4ccccc4)c3)nc21 [CBK064192]

>  <viability at 28.5 h, 10 µM, %>
88.8

$$$$

compound Sc1nncn1NCc1cc(Cl)ccc1OCc1ccccc1 [CBK265752] , viability at 28.5 h, 10 µM observed: 88.9

compound C[C@H]1CN2C[C@H](O)CC2CN1Cc1cn(C)c2ccc(F)cc12 (some centres unmarked) [CBK285428] , viability at 28.5 h, 10 µM observed: 97.6

====

TEST: in vitro
CONDITIONS USED: human, hela cells, % viability
MEASUREMENT LABEL: viability at 28.5 h, 10 µM (%)
Give just the number in %; leave the unit off.

>  <COMPOUND>
O=C1CC(c2cc(F)ccc2F)c2c(-c3ccc(Cl)cc3)n[nH]c2N1 (stereo not shown)

>  <viability at 28.5 h, 10 µM (%)>
110

$$$$
>  <COMPOUND>
COC(=O)[C@@H](C)NC(=O)[C@H]1CN(S(=O)(=O)c2ccccc2)CCN1C(C)=O

>  <viability at 28.5 h, 10 µM (%)>
88.2

$$$$
>  <COMPOUND>
CC(C(=O)NCCN1CCOCC1)N1c2cccc3cccc(c23)S1(=O)=O (stereo not shown)

>  <viability at 28.5 h, 10 µM (%)>
91.2

$$$$
>  <COMPOUND>
O=C(NCc1cccnc1)c1ccc(-c2ccoc2)nc1

>  <viability at 28.5 h, 10 µM (%)>
89.6

$$$$
>  <COMPOUND>
O=C(NCc1ccncc1)C1CC1c1ccccc1 (stereo not shown)

>  <viability at 28.5 h, 10 µM (%)>
107

$$$$

compound Cc1ccc(SCCN2CCN(C)CC2)cc1 [CBK269631C] , viability at 28.5 h, 10 µM observed: 89.2

compound COc1ccc(CNC(=O)N(CCc2ccccc2)CC(C)(C)CN)cc1 [CBK000463C] , viability at 28.5 h, 10 µM observed: 119

compound Cc1cccc(-c2ncc(NC(=O)CC3OC(=O)c4ccccc43)nc2-c2ccc(N)cc2)c1 (stereo not shown) , viability at 28.5 h, 10 µM observed: 91.5

compound O=C(Nc1ccccn1)c1nccnc1-c1ccc(COc2ccccc2)cc1 , viability at 28.5 h, 10 µM observed: 86.1

compound COc1cc(CNc2nccnc2-c2cccc(CO)c2)cc(OC)c1 , viability at 28.5 h, 10 µM observed: 90.6
